Target: SARS-CoV-2 PLpro (Severe acute respiratory syndrome coronavirus 2)
Construct: containing 60 nM papain-like protease
Assay: biochemical
Conditions: 60 nM papain-like protease, 50 μM Z-RLRGG-AMC, pH 7.5, 37° C.; read-out: SARS-CoV-2 PLpro IC50
pIC50: −log10 of the molar value.
ASSAY_ENDPOINT: pIC50

{"columns": ["COMPOUND", "ASSAY_ENDPOINT", "VALUE"],
 "data": [
  ["Cc1ccc(N2CCN(C)CC2)cc1C(=O)N[C@H](C)c1ccc(F)c(-c2ccccc2)c1", "pIC50", "> 5.70"],
  ["COc1ccc([C@@H](C)NC(=O)c2cc(N3CCNCC3)ccc2C)cc1-c1cnn(C)c1", "pIC50", "> 5.70"],
  ["CC(=O)N1CCN(c2cccc(C(=O)N[C@H](C)c3cccc4ccccc34)c2)CC1", "pIC50", "< 4.00"],
  ["Cc1ccc(N2CCN(C)CC2)cc1C(=O)N[C@H](C)c1ccc(F)c(Br)c1", "pIC50", "> 5.70"],
  ["COc1cc(-c2cnn(C)c2)cc([C@@H](C)NC(=O)c2cc(N3CCNC4(CC4)C3)ccc2C)c1", "pIC50", "> 5.70"],
  ["Cc1ccc(N2CCC(N)CC2)cc1C(=O)N[C@H](C)c1cccc2ccccc12", "pIC50", "> 5.30"],
  ["COc1cc(-c2cn(C)nc2C)cc([C@@H](C)NC(=O)c2cc(N3CCN4CCCC4C3)ccc2C)c1 (stereo partly shown)", "pIC50", "> 5.70"],
  ["Cc1ccc(N2CCN(C)CC2)cc1C(=O)N[C@H](C)c1cncc(-c2ccccc2)c1", "pIC50", "> 5.70"],
  ["Cc1ccc(N2CCN(C)CC2)cc1C(=O)N[C@H](C)c1ccc(N2CCNCC2)cc1", "pIC50", "> 5.30"],
  ["CNC(=O)c1cccc(-c2cccc([C@@H](C)NC(=O)c3cc(N4CCN(C)CC4)ccc3C)c2)c1", "pIC50", "> 5.70"],
  ["Cc1ccc(N2CCN(C)CC2)cc1C(=O)N[C@H](C)c1cccc(-c2cc(C(=O)N(C)C)n(C)c2)c1", "pIC50", "> 5.70"],
  ["Cc1ccc(N2CCS(=O)(=O)CC2)cc1C(=O)N[C@H](C)c1cccc2ccccc12", "pIC50", "> 4.00"],
  ["Cc1ccc(N2CCN(C)CC2)cc1C(=O)N[C@H](C)c1cccc(S(C)(=O)=O)c1", "pIC50", "> 4.70"],
  ["Cc1ccc(N2CCN(C)CC2)cc1C(=O)N[C@H](C)c1ccc2c(c1)OCCO2", "pIC50", "> 5.30"],
  ["Cc1ccc(N2CCN(C)CC2)cc1C(=O)N[C@H](C)c1ccc(C)c(-c2cnn(C)c2)c1", "pIC50", "> 5.70"],
  ["COc1ccc([C@@H](C)NC(=O)c2cc(N3CCN(C)CC3)ccc2C)cc1Br", "pIC50", "> 5.70"]
]}
